system: MDR1; assay: Efflux ratio of apparent permeability in MDCK-MDR1 cells at 10 uM up to 120 mins; type: ADME, cell-based, Canis lupus familiaris; conditions: dog
measurement_label: efflux ratio at 2 h, 10 µM

| structure_notation | efflux ratio at 2 h, 10 µM |
| --- | --- |
| O=C1c2ccccc2C(=O)N1C[C@@H]1c2ccccc2CCN1C(=O)C1CCCCC1 | 0.7 |

a: O=C(O)[C@H]1CCCC[C@H]1C(=O)N1CCc2ccccc2[C@H]1Cc1ccccc1
b: O=C(O)[C@H]1CCCC[C@H]1C(=O)N1CCc2ccccc2[C@H]1CN1Cc2ccccc2C1=O
**Query** # returns the entry with the larger efflux ratio at 2 h, 10 µM; inputs a and b Write down the label of the entry you select.
**Result** b
(b: 7.5, a: 0.7)
